System: C-33-A
protocol-notes: cells
recorded-conditions: Homo sapiens, 120 h
value-type: IC50 (nM)

[[record]]
smiles_record = "Cc1nc2ccc(-c3cc(N)nc(N)c3)nc2n1C1CC1"
value_type = "IC50"
unit = "nM"
recorded_result = 1020


====

test-system: Dual specificity tyrosine-phosphorylation-regulated kinase 2 (Homo sapiens)
Sequence (Q92630 whole entry): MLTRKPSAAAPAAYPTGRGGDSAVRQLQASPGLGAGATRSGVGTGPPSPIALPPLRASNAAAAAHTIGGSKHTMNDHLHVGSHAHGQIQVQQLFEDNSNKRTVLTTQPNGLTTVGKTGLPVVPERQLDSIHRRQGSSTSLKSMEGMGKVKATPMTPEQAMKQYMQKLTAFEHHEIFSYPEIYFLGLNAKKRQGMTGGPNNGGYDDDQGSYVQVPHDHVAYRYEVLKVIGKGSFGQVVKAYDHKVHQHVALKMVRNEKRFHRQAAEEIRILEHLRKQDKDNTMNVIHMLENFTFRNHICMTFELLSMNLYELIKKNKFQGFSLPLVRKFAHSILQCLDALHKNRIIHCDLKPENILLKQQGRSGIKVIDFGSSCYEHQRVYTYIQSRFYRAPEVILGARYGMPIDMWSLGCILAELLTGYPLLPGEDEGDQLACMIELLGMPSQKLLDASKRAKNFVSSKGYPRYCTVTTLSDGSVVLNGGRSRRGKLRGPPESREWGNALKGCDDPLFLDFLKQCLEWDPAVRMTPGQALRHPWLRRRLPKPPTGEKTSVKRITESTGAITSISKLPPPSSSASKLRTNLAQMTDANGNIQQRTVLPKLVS
protocol-notes: Inhibition of DYRK2 (unknown origin) using Ulight-MBP as substrate and ATP as co-substrate incubated for 40 mins and measured after 1 hr by TR-FRET assay
pIC50: −log10 of the molar value.
We begin with a simple list: items and their reported pIC50.
value-type: pIC50

[[record]]
smiles_record = "Cc1nc2ccc(-c3cc(N)nc(N)c3)nc2n1CCOc1ccccc1"
recorded_result = 8.05

[[record]]
smiles_record = "Cc1nc2ccc(-c3cc(N)nc(N)c3)nc2n1CC(F)F"
recorded_result = 8.40

[[record]]
smiles_record = "Cc1nc2ccc(-c3cc(N)nc(N)c3)nc2n1C[C@@H](C)Oc1ccccn1"
recorded_result = 6.94

[[record]]
smiles_record = "Cc1nc2ccc(-c3cc(N)nc(N)c3)nc2n1CCC1CCCCC1"
recorded_result = 8.05

[[record]]
smiles_record = "Cc1nc2ccc(-c3cc(N)nc(N)c3)nc2n1C[C@H](C)Oc1ccccc1"
recorded_result = 7.66

[[record]]
smiles_record = "Cc1nc2ccc(-c3cc(N)nc(N)c3)nc2n1CC(F)(F)F"
recorded_result = 8.22

[[record]]
smiles_record = "Cc1nc2ccc(-c3cc(N)nc(N)c3)nc2n1C(C)(C)C"
recorded_result = 8.22

[[record]]
smiles_record = "Cc1nc2ccc(-c3cc(N)nc(N)c3)nc2n1CCOc1cccc(Cl)n1"
recorded_result = 7.48

[[record]]
smiles_record = "Cc1oc2ccc(-c3cc(N)nc(N)c3)cc2c1C"
recorded_result = 7.68

[[record]]
smiles_record = "Cc1nc2ccc(-c3cc(N)nc(N)c3)nc2n1C1CCCC1"
recorded_result = 9.00

[[record]]
smiles_record = "Cc1nc2ccc(-c3cc(N)nc(N)c3)nc2n1C[C@H](C)Oc1ccccn1"
recorded_result = 6.93

[[record]]
smiles_record = "Cc1nc2ccc(-c3cc(N)nc(N)c3)nc2n1CCOc1cccc(Br)n1"
recorded_result = 7.28

[[record]]
smiles_record = "Cc1nc2ccc(-c3cc(N)nc(N)c3)nc2n1C[C@@H](C)Oc1cccc(Br)n1"
recorded_result = 6.71

[[record]]
smiles_record = "COCCCn1c(C)nc2ccc(-c3cc(N)nc(N)c3)nc21"
recorded_result = 8.30

[[record]]
smiles_record = "Cc1nc2ccc(-c3cc(N)nc(N)c3)nc2n1Cc1ccc(F)cc1"
recorded_result = 6.87

[[record]]
smiles_record = "Cc1nc2ccc(-c3cc(N)nc(N)c3)nc2n1CCc1ccco1"
recorded_result = 8.22

[[record]]
smiles_record = "Cc1nc2ccc(-c3cc(N)nc(N)c3)nc2n1C[C@@H](C)Oc1ccccc1"
recorded_result = 7.34

[[record]]
smiles_record = "Cc1nc2ccc(-c3cc(N)nc(N)c3)nc2n1CCOc1ccccn1"
recorded_result = 7.47

[[record]]
smiles_record = "Cc1nc2ccc(-c3cc(N)nc(N)c3)nc2n1C1CC1"
recorded_result = 8.52

[[record]]
smiles_record = "Cc1nc2ccc(-c3cc(N)nc(N)c3)nc2n1CCCC(F)(F)F"
recorded_result = 8.00


====

test-system: UniProt Q13627
protocol-notes: Inhibition of DYRK1A (unknown origin) using Ulight-MBP as substrate and ATP as co-substrate incubated for 40 mins and measured after 1 hr by TR-FRET assay
pIC50: −log10 of the molar value.
value-type: pIC50

[[record]]
smiles_record = "CNCC(=O)Nc1cc(-c2ccc3occc3c2)cc(N)n1"
qualifier_symbol = "="
recorded_result = 6.77

[[record]]
smiles_record = "Cc1cc(-c2ccc3occc3c2)cc(N)n1"
qualifier_symbol = "="
recorded_result = 7.11

[[record]]
smiles_record = "c1cc(-c2ccc3occc3c2)cc(N2CCNCC2)n1"
qualifier_symbol = "="
recorded_result = 5.45

[[record]]
smiles_record = "Cc1cc2cc(-c3cc(N)nc(N)c3)ccc2o1"
qualifier_symbol = "="
recorded_result = 7.47

[[record]]
smiles_record = "Nc1cc(-c2ccc3c(c2)CCO3)nc(N)n1"
qualifier_symbol = "="
recorded_result = 7.66

[[record]]
smiles_record = "COc1ccc(-c2cc(N)nc(N)n2)cc1"
qualifier_symbol = "="
recorded_result = 6.80

[[record]]
smiles_record = "Nc1cc(-c2ccc3ncccc3c2)cc(N)n1"
qualifier_symbol = "="
recorded_result = 8.00

[[record]]
smiles_record = "Nc1cc(-c2ccc3c(c2)CCO3)cc(N)n1"
qualifier_symbol = "="
recorded_result = 7.80

[[record]]
smiles_record = "Nc1cc(-c2ccc3ocnc3c2)cc(N)n1"
qualifier_symbol = "="
recorded_result = 7.66

[[record]]
smiles_record = "Cc1onc2ccc(-c3cc(N)nc(N)c3)cc12"
qualifier_symbol = "="
recorded_result = 7.72

[[record]]
smiles_record = "Cc1cc(-c2ccc(Cl)cc2)ccn1"
qualifier_symbol = "<"
recorded_result = 5.00

[[record]]
smiles_record = "CNc1cc(-c2ccc3occc3c2)cc(N)n1"
qualifier_symbol = "="
recorded_result = 7.77


====

We begin with a simple list: items and their reported pIC50.
test-system: Dual specificity tyrosine-phosphorylation-regulated kinase 1A (Homo sapiens)
protocol-notes: Inhibition of wild type full length DYRK1A (unknown origin) in human U2OS cells assessed as reduction in pSER520 autophosphorylation incubated for 5 hrs by western blot analysis
Type: cell-based
recorded-conditions: read-out: IC50
pIC50: −log10 of the molar value.
value-type: pIC50

[[record]]
smiles_record = "Cc1nc2ccc(-c3cc(N)nc(N)c3)nc2n1Cc1ccc(F)cc1"
qualifier_symbol = "="
recorded_result = 5.52

[[record]]
smiles_record = "Nc1cc(-c2ccc3occc3c2)cc(N)n1"
qualifier_symbol = "="
recorded_result = 6.30

[[record]]
smiles_record = "Cc1nc2ccc(-c3cc(N)nc(N)c3)nc2n1C[C@@H](C)Oc1cccc(Br)n1"
qualifier_symbol = "="
recorded_result = 7.36

[[record]]
smiles_record = "Cc1nc2ccc(-c3cc(N)nc(N)c3)nc2n1C[C@H](C)Oc1ccccn1"
qualifier_symbol = "<"
recorded_result = 6.52

[[record]]
smiles_record = "Cc1cc2cc(-c3cc(N)nc(N)c3)ccc2o1"
qualifier_symbol = "="
recorded_result = 5.74

[[record]]
smiles_record = "Cc1oc2ccc(-c3cc(N)nc(N)c3)cc2c1C"
qualifier_symbol = "="
recorded_result = 5.78

[[record]]
smiles_record = "Cc1nc2ccc(-c3cc(N)nc(N)c3)nc2n1C[C@H](C)Oc1ccccc1"
qualifier_symbol = "="
recorded_result = 7.14

[[record]]
smiles_record = "Cc1nc2ccc(-c3cc(N)nc(N)c3)nc2n1C[C@@H](C)Oc1ccccc1"
qualifier_symbol = "="
recorded_result = 6.95


====

test-system: hERG (KCNH2) (Homo sapiens, UniProt Q12809)
Sequence (Q12809 whole entry): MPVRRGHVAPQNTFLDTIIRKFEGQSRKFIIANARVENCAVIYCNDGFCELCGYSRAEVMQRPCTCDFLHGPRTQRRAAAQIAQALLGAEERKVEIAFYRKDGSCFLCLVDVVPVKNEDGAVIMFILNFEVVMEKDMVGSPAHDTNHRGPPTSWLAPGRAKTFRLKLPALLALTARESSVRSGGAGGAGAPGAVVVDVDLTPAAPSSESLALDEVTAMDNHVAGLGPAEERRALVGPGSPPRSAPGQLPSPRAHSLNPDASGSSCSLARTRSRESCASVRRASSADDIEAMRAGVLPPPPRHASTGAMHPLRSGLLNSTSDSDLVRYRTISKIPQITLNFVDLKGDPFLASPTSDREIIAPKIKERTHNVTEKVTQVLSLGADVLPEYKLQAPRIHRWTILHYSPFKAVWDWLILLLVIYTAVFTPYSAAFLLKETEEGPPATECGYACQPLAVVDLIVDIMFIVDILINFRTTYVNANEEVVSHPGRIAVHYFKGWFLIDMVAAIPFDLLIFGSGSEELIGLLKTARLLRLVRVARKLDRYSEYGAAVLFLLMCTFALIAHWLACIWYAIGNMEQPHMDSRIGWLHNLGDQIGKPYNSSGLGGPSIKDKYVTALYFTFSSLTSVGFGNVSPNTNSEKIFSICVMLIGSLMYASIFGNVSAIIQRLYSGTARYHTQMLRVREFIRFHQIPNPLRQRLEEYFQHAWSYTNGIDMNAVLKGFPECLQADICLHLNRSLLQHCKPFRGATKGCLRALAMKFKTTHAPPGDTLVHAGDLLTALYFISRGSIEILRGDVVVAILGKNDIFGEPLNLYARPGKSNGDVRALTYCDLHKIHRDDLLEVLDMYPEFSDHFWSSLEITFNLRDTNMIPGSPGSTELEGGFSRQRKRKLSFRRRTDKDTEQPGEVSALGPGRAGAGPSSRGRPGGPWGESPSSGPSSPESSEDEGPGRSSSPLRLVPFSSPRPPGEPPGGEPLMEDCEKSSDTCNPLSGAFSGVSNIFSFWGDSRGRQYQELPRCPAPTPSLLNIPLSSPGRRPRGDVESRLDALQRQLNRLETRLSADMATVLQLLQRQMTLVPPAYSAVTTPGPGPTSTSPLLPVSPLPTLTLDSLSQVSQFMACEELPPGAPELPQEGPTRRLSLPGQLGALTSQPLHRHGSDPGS
protocol-notes: Inhibition of hERG at 10 uM by patch clamp method relative to control
Assay type: toxicity
value-type: inhibition at 10 µM (%)

[[record]]
smiles_record = "Cc1nc2ccc(-c3cc(N)nc(N)c3)nc2n1C1CC1"
value_type = "inhibition at 10 µM"
recorded_result = 52


====

test-system: Dual specificity tyrosine-phosphorylation-regulated kinase 1A (Homo sapiens)
protocol-notes: Inhibition of DYRK1A (unknown origin) using Ulight-MBP as substrate and ATP as co-substrate incubated for 40 mins and measured after 1 hr by TR-FRET assay
pIC50: −log10 of the molar value.
value-type: pIC50

[[record]]
smiles_record = "Nc1cc(-c2ccc3sccc3c2)cc(N)n1"
value_type = "pIC50"
recorded_result = 6.86

[[record]]
smiles_record = "COCCCNc1cc(-c2ccc3occc3c2)cc(N)n1"
value_type = "pIC50"
recorded_result = 7.02

[[record]]
smiles_record = "COc1ccc(-c2ccnc(N)c2)cc1"
value_type = "pIC50"
recorded_result = 6.90

